Ref: PubChem BioAssay AID1159580

Test: chemical genetic growth profiling, strain panel (AID 1159580);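 further: tested at 20 µM; growth read once vehicle control cultures reached saturation at 30 °C; 1 = growth at the plate median or of vehicle wells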
Conditions: S. cerevisiae deletion strains, growth OD, locus YDR363W, strain ESC2
The whole screen tested about 5,500 compounds, of which about 2,000 (36%) were called active. Another 18% or so got no clear call; they are omitted. No stated cut-off is given here; in the data, active means normalized growth mostly below about 0.91 (no sharp cut-off); inconclusive means no clear call, values can overlap the other calls; inactive means mostly above about 0.92. This is one part of the list.
Returns: one label drawn from active, inactive

>  <COMPOUND>
NC12CC3CC(CC(C3)C1)C2

>  <CLASS>
inactive

$$$$
>  <COMPOUND>
CC1C(=O)N(C)C(=O)c2nc[nH]c21 (stereo unspecified)

>  <CLASS>
inactive

$$$$
>  <COMPOUND>
O=C(O)CCCCCC[C@H]1C(=O)NC(=O)N1CC[C@@H](O)C1CCCCC1

>  <CLASS>
inactive

$$$$
>  <COMPOUND>
N=C(N)SCCc1ccc(CCSC(=N)N)cc1

>  <CLASS>
inactive

$$$$
>  <COMPOUND>
FC(F)(F)c1ccccc1-n1ccnc1

>  <CLASS>
inactive

$$$$
>  <COMPOUND>
Nc1ncnc2c1ncn2C1CCCC1

>  <CLASS>
inactive

$$$$

Continue with the compound presented below.
# input Please let me know the test result on file for OC(CCN1CCCCC1)(c1ccccc1)C1CCCCC1 (stereo unspecified) .
# output inactive

---

Experiment: chemical genetic growth profiling, strain panel (AID 1159580);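 further: tested at 20 µM; growth read once vehicle control cultures reached saturation at 30 °C; 1 = growth at the plate median or of vehicle wells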
Details: S. cerevisiae deletion strains, growth OD, locus YNL322C, strain KRE1 (second series), stronger effect = lower value
The campaign covered roughly 5,500 compounds. About 2,000 (36%) were called active. Not shown: some 18% with an inconclusive outcome. This is one part of the list.
Overview of recorded normalized growth for various compounds
Answer using only a numeral; do not append any unit.

>  <COMPOUND>
CC(C)(Sc1cc(C(C)(C)C)c(O)c(C(C)(C)C)c1)Sc1cc(C(C)(C)C)c(O)c(C(C)(C)C)c1

>  <normalized growth>
1.01

$$$$
>  <COMPOUND>
Nc1ccccc1C(=O)CC(N)C(=O)O (stereo not given)

>  <normalized growth>
1

$$$$
>  <COMPOUND>
COc1ccc2c(c1)c(CC(=O)OCC(=O)O)c(C)n2C(=O)c1ccc(Cl)cc1

>  <normalized growth>
1.01

$$$$
>  <COMPOUND>
N#CC(O[C@@H]1O[C@H](CO[C@@H]2O[C@H](CO)[C@@H](O)[C@H](O)[C@H]2O)[C@@H](O)[C@H](O)[C@H]1O)c1ccccc1 (stereo not given in full)

>  <normalized growth>
0.977

$$$$
>  <COMPOUND>
CNC(=O)O/N=C\C(C)(C)SC

>  <normalized growth>
0.999

$$$$

# input Give the measured normalized growth of Cc1cc(C(C)(C)C)c(O)c(C(C)(C)C)c1 .
# output 1.01

# input Give the measured normalized growth of CO[C@@]12[C@@H]3NC3CN1C1=C(C(=O)C(N)=C(C)C1=O)[C@@H]2COC(N)=O (stereo not given in full) .
# output 0.945

# input Give the measured normalized growth of N=C(N)c1ccc(OCCCCCOc2ccc(C(=N)N)cc2)cc1 .
# output 0.918

# input Give the measured normalized growth of CC(=O)NC(C(=O)O)C(C)(C)SN=O (stereo not given) .
# output 0.997

# input Give the measured normalized growth of CCOP(=S)(OCC)Oc1nc(Cl)c(Cl)cc1Cl .
# output 0.943
